Target: UniProtKB Q9H093
Sequence (Q9H093 whole entry): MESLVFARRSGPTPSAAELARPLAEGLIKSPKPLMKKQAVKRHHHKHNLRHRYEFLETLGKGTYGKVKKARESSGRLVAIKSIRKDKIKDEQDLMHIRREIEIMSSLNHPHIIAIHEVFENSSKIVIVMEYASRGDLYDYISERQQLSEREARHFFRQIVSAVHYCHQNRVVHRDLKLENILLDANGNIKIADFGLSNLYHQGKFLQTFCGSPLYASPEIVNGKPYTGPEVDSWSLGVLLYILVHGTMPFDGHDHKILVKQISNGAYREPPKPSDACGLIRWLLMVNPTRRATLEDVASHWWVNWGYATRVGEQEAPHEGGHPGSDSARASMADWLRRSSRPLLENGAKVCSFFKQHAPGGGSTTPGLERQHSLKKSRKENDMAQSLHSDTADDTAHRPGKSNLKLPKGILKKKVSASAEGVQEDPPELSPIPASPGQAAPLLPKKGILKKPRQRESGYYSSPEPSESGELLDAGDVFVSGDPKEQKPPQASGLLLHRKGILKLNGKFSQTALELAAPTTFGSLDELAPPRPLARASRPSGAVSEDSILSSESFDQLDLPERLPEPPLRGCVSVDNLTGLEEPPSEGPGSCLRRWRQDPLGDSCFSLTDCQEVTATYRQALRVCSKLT
Experiment: Kinase activity assay, P81 filter paper binding hot-spot technique (33P-ATP, CHKtide substrate)
Assay type: biochemical
Conditions: final concentration of NUAK2 50 nM; 20 µM CHKtide substrate; 33P-labeled ATP; 2 hours at room temperature; read-out: IC50 (nM) of Test Compounds against NUAK2
PROPERTY LABEL: IC50 (nM)

CCCS(=O)(=O)Nc1cnn(-c2nc(Nc3cnn(C4CCNCC4)c3)ncc2Cl)c1 [TDM-181177] = 72
COc1cc(N2CCN(C)CC2)ccc1Nc1nccc(-n2cc(C(=O)NCC#N)cn2)n1 [TDM-181139] = 991
COc1cc(N2CCN(C)CC2)ccc1Nc1nccc(-n2ccc(C(=O)NCC#N)c2)n1 [TDM-181146] = 602
CN1CCN(c2ccc(Nc3nccc(-n4ccc(C(=O)NCC#N)c4)n3)cc2)CC1 [TDM-181147] = 77

[A] N#CCNC(=O)c1ccn(-c2ccnc(Nc3cnn(C4CCNCC4)c3)n2)c1 [TDM-181153]
[B] COc1cc(N2CCN(C)CC2)ccc1Nc1ncc(Cl)c(-n2ccc(C(=O)NCC#N)c2)n1 [TDM-181155]
[C] CCCS(=O)(=O)Nc1cnn(-c2nc(Nc3cnc(C4CCNCC4)s3)ncc2Cl)c1 [TDM-181179]
[D] N#CCNC(=O)c1ccn(-c2ccnc(Nc3ccc(C4CCNCC4)cc3)n2)c1 [TDM-181154]
[E] O=C(Nc1cnn(-c2ccnc(Nc3cnn(C4CCNCC4)c3)n2)c1)[C@@H]1CC1(F)F [TDM-181159]
Returns the items ordered by IC50, from maximum to minimum. I'd appreciate it if you listed the labels in the requested order.
E, D, A, B, C

[P] CN1CCN(c2ccc(Nc3ncc(Cl)c(-n4ccc(C(=O)NCC5CC5)c4)n3)cc2)CC1 [TDM-181171]
[Q] N#CCNC(=O)c1cnn(-c2ccnc(Nc3cnn(C4CCNCC4)c3)n2)c1 [TDM-181140]
[R] CN1CCC(n2cc(Nc3nccc(-c4cnn(C(=O)C5CC5)c4)n3)cn2)CC1 [TDM-181169]
Please order the records by their reported IC50, lowest number first. I'd appreciate it if you listed the labels in the requested order.
P, Q, R

[P] CCS(=O)(=O)N1CCC(n2cc(-c3ccnc(Nc4cnn(C5CCNCC5)c4)n3)cn2)C1 (centres unmarked) [TDM-181134]
[Q] CNC(=O)c1ccn(-c2nc(Nc3ccc(N4CCN(C)CC4)cc3)ncc2Cl)c1 [TDM-181170]
Of P and Q , which one carries the higher reported IC50? Provide the label of your selected option as the answer.
P
